# reported growth; entries follow
test system: SW-620 colon; test: NCI-60 one-dose screen, 48 h (100 = growth as untreated, 0 = no growth, -100 = all killed); conditions: 10 µM unless noted
Compounds without any hit were thinned out: in the full panel of roughly 83,000, 20% have a hit.
property.measured: growth (%)

>>> df
                                    molecule  measurement_units  reading
 0  C[C@H]1[C@@H](CC(=O)N[C@@H](Cc2coc3ccccc23)B(O)O)O[C@@H]2OC3(C)CC[C@H]4[C@H](C)CC[C@@H]1[C@@]24O3                  %     3.32
 1  O=C(NC(=S)N1CCN(c2ncnc3c2cnn3-c2ccccc2)CC1)c1ccc(Br)cc1                  %     81.7
 2   c1n[nH]cc1-c1nc2ccc3cn[nH]c3c2c2c1CCCC2                  %      109
 3  O=c1c(-c2nc(-c3ccccc3)c(-c3ccccc3)[nH]2)coc2ccc(F)cc12                  %       51
 4  CC1=C(C(=O)OCc2ccccc2)C(c2ccc(N(C)C)cc2)n2c(nc3ccccc32)N1 (stereo not drawn)                  %      103
 5  CCCCCCCCCc1ccc(C(=O)Nc2cc(C)ccc2C(=O)OC)cc1                  %     99.7
 6  Cn1cc(Nc2ncnc(-c3ccc(N4CCCC4)c(C#N)c3)n2)cn1                  %     57.6
 7  CCC1(OC(=O)c2ccccc2SSCCOC(=O)CCCCC2SCC3NC(=O)NC32)C(=O)OCc2c1cc1n(c2=O)Cc2cc3ccccc3nc2-1 (stereo not drawn)                  %     51.5
 8  COc1ccc(NC(=O)CSc2nnc(-c3ccc(-c4nc5ccc(Cl)cc5[nH]4)cc3)o2)cc1                  %     20.3
 9  CS(=O)(=O)Nc1cc(-c2ccc3ncnc(Nc4ccc(OCc5cccnc5)c(Cl)c4)c3c2)cnc1Cl                  %     6.78
10    COc1ccc2nc(NC(=O)c3ccc(N(C)C)cc3)sc2c1                  %     91.8
11  Cc1ccc(C(=O)Nc2cc(-n3cnc(F)c3)cc(C(F)(F)F)c2)cc1C#Cc1cnc2cccnn12                  %     45.1
12  Cc1ccc(C(=O)Nc2cc(-c3ccccc3)cc(C(F)(F)F)c2)cc1C#Cc1cnc2cccnn12                  %     66.7
13  COC(=O)c1c(C(=O)OC)c2c3ccccc3c3ccccc3n2c1C(=O)C(C)(C)C                  %      100
14  C/C(=N\Nc1ccc(C(=O)O)cc1)c1cnn(-c2cc(=O)[nH]c3ccc(C)cc23)c1C                  %      110
15  COc1cccc(/C=C/c2nc3ccccc3c(=O)n2CC(=O)Nc2ccccc2)c1                  %     51.1
16  COc1ccc2[nH]cc(-c3cc4nc(-c5cn(C)c6ncccc56)cc(N)n4n3)c2c1                  %    -53.3
17  O=C(c1ccc(Cl)cc1)C1[C@H](c2ccccc2Cl)[C@@H](c2ccccc2)NC12C(=O)Nc1ccc(Cl)cc12 (stereo partly drawn)                  %    -61.5
18  CC(C)CN1C(=O)/C(=C\C(=O)c2cc3ccccc3oc2=O)c2ccccc21                  %       41
19  O=CNc1ccc(-n2cnc3cc(-c4ccc(O)cc4)ccc32)cc1                  %      101
20  NS(=O)(=O)c1ccc(N2N=C(c3ccc(NC(=O)Nc4ccccc4)cc3)CC2c2ccc(Br)cc2)cc1 (stereo not drawn)                  %    -3.46
21  N/C(=N\c1nc2ccc([N+](=O)[O-])cc2s1)NC(=O)Nc1ccccc1Cl                  %     21.4
22  COc1ccc2[nH]c(O)c(N=Nc3nc(-c4ccc(C#N)cc4)cs3)c2c1                  %     63.3
23  N#Cc1c(-c2ccc(F)cc2)nc(SCc2ccccc2)nc1N1CCNCC1                  %    -78.7
24  N#CC1=C(c2cccs2)Nc2c(c(-c3ccccc3)nn2-c2ccccc2)C12C(=O)Nc1ccc(Br)cc12 (stereo not drawn)                  %    -24.6
25  Nc1nc2cc(-c3ccc4ncnc(NCc5ccccc5)c4c3)ccc2o1                  %     24.1
26  COc1ccc(Nc2ncnc3sc4c(c23)CCN(Cc2ccccc2)C4)cc1                  %     99.8
27    Nc1nc(-c2ccccc2)c(N=Nc2ccc(Cl)cc2Cl)s1                  %    -59.7
28        NNc1ncnc2sc3c(c12)CCN(Cc1ccccc1)C3                  %     46.6
29  COc1cc(NC(=O)C(C)C)ccc1C(=O)NC(=S)Nc1ccc(S(N)(=O)=O)cc1                  %      107
30  Cn1cc(-c2cc(N)n3nc(-c4c[nH]c5ccc(F)cc45)cc3n2)c2cc(Br)cnc21                  %     17.2
31  COc1ccc2[nH]c(=O)c(CSc3ccccc3Nc3nccc(-c4ccc(Cl)cc4)n3)cc2c1                  %     50.3
32  Cc1ccc(C2CC(c3ccc(NC(=O)Nc4ccccc4)cc3)=NN2c2ccc(S(N)(=O)=O)cc2)cc1 (stereo not drawn)                  %    -83.4
33  N/C(=N\c1nc2ccccc2s1)NC(=O)Nc1ccccc1[N+](=O)[O-]                  %       31
34       CCCCCCCCCCCCCCCCCC(=O)Nc1ccc(OC)cc1                  %      103
35  O=C(CSc1nc2c(c(=O)[nH]1)CCCC2)Nc1ccccc1C(=O)O                  %      116
36  Cc1ccc2nc(COc3ccc(C(=O)NNC(=O)Nc4ccc(Cl)c(C(F)(F)F)c4)cc3)[nH]c2c1                  %     43.4
37  CN1CCN(C(=O)Oc2cc3c(c4ccccc24)[C@H](CCl)CN3C(=O)c2cc3cc(OCCCN4CCC4)ccc3[nH]2)[C@H]2CSSC[C@H]21                  %     4.18
